Assay Remarks: Mouse plasma stability
Type: in vitro ADME
Study Conditions: pooled mouse plasma, 37° C.
Positions of bridges follow the written chain, without caps; N, C: chain ends. Non-standard residues stand in square brackets, D forms with d. Residues, ends and D or L forms follow the SMILES beside them. dPhe(4-Br) = N[C@H](Cc1ccc(Br)cc1)C(=O)O; Nle = CCCC[C@H](N)C(=O)O; dAbu = CC[C@@H](N)C(=O)O
Measured Quantity: half-life at 1 µM (h)
Hi! Could you send only the number? It should be in h, unit omitted.

Reported half-life at 1 µM for CCCC[C@H](NC(=O)[C@H](CCCNC(=N)N)NC(C)=O)C(=O)N[C@H]1CSSC[C@@H](C(N)=O)NC(=O)[C@H](Cc2c[nH]c3ccccc23)NC(=O)[C@H](CCCNC(=N)N)NC(=O)[C@@H](Cc2ccccc2)NC(=O)[C@H](Cc2c[nH]cn2)NC1=O [CTX-1227, Arg-Nle-cyclo(Cys-His-D-Phe-Arg-Trp-Cys)] (Ac-R[Nle]CH[dF]RWC-NH2; disulfide 3-8 (inferred)) was 1.05

Reported half-life at 1 µM for CCCC[C@H](NC(=O)[C@H](CCCNC(=N)N)NC(C)=O)C(=O)N[C@H]1CSSC[C@@H](C(N)=O)NC(=O)[C@H](Cc2c[nH]c3ccccc23)NC(=O)[C@H](CCCNC(=N)N)NC(=O)[C@@H](Cc2ccccc2)NC(=O)[C@H](CCCNC(=N)N)NC1=O [CTX-1228, Arg-Nle-cyclo(Cys-Arg-D-Phe-Arg-Trp-Cys)] (Ac-R[Nle]CR[dF]RWC-NH2; disulfide 3-8 (inferred)) was 0.917

Reported half-life at 1 µM for COc1ccc(C[C@H]2NC(=O)[C@H](CCCNC(=N)N)NC(=O)[C@@H](C)NC(=O)[C@@H](NC(=O)[C@H](CCCNC(=N)N)NC(C)=O)CSSC[C@@H](C(N)=O)NC(=O)[C@@H](Cc3c[nH]c4ccccc34)NC(=O)[C@H](CCCNC(=N)N)NC2=O)cc1 [CTX-1238] (Ac-RC[dA]R[dY](Me)R[dW]C-NH2; disulfide 2-8 (inferred)) was 2.87

Reported half-life at 1 µM for CC[C@H]1NC(=O)[C@@H](NC(=O)[C@H](CCCNC(=N)N)NC(C)=O)CSSC[C@@H](C(N)=O)NC(=O)[C@@H](Cc2c[nH]c3ccccc23)NC(=O)[C@H](CCCNC(=N)N)NC(=O)[C@@H](Cc2ccc(Br)cc2)NC(=O)[C@H](CCCNC(=N)N)NC1=O [CTX-1247] (Ac-RC[dAbu]R[dPhe(4-Br)]R[dW]C-NH2; disulfide 2-8 (inferred)) was 3.32

---

Assignment: determine reported MC4R selectivity vs MC3R for the given molecules.
Target Or System: human MC3R (Homo sapiens, UniProt P41968)
Construct: expressed in transfected cells; host or cells: HEK-293 cells stably expressing the GScAMP22F split-luciferase cAMP sensor (parent reporter line from Promega); MC3R clone generated in-house, G418 selection
Sequence (P41968 whole entry): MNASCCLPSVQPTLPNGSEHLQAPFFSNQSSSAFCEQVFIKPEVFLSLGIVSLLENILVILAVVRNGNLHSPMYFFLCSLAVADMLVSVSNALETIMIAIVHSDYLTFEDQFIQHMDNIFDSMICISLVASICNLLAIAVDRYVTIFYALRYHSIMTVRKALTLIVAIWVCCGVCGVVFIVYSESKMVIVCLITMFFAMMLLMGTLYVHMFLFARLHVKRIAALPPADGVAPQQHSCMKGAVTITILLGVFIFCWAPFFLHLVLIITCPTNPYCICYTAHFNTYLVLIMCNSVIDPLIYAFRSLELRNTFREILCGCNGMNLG
Assay Remarks: split-luciferase cAMP sensor assay, agonist mode (measurement window 1), hMC3R
Format: cell-based
Study Conditions: MC4R versus MC3R
Positions of bridges follow the written chain, without caps; N, C: chain ends. Non-standard residues stand in square brackets, D forms with d. Residues, ends and D or L forms follow the SMILES beside them. 2Nal = N[C@@H](Cc1ccc2ccccc2c1)C(=O)O; Nle = CCCC[C@H](N)C(=O)O; Aib = CC(C)(N)C(=O)O

Reported MC4R selectivity vs MC3R for CCCC[C@H](NC(C)=O)C(=O)N[C@H]1CSSC[C@@H](C(=O)N[C@@H](CCCNC(=N)N)C(=O)N[C@@H](Cc2ccccc2)C(=O)NCC(N)=O)NC(=O)[C@@H](Cc2c[nH]c3ccccc23)NC(=O)[C@H](CCCNC(=N)N)NC(=O)[C@H](Cc2ccc3ccccc3c2)NC(=O)[C@H](Cc2c[nH]cn2)NC1=O [CTX-2128] (Ac-[Nle]CH[2Nal]R[dW]CRFG-NH2; disulfide 2-7 (inferred)) was 0.01

Reported MC4R selectivity vs MC3R for CC(=O)N[C@H]1CSSC[C@@H](C(N)=O)NC(=O)[C@H](Cc2c[nH]c3ccccc23)NC(=O)[C@H](CCCNC(=N)N)NC(=O)[C@@H](Cc2ccccc2)NC(=O)[C@H](CCCNC(=N)N)NC(=O)C(C)(C)NC1=O [CTX-1632, cyclo(Cys-Aib-Arg-D-Phe-Arg-Trp-Cys)] (Ac-C[Aib]R[dF]RWC-NH2; disulfide 1-7) was 36

Reported MC4R selectivity vs MC3R for CC(=O)N[C@H]1CSSC[C@@H](C(N)=O)NC(=O)[C@H](Cc2ccccc2)NC(=O)[C@H](CCCNC(=N)N)NC(=O)[C@@H](Cc2ccccc2)NC(=O)[C@H](CCCNC(=N)N)NC(=O)C(C)(C)NC1=O [CTX-1635, cyclo(Cys-Aib-Arg-D-Phe-Arg-Phe-Cys)] (Ac-C[Aib]R[dF]RFC-NH2; disulfide 1-7 (inferred)) was 5.7

Reported MC4R selectivity vs MC3R for CC(=O)N[C@@H](CCCNC(=N)N)C(=O)N[C@H]1CSSC[C@@H](C(N)=O)NC(=O)[C@@H](Cc2c[nH]c3ccccc23)NC(=O)[C@H](CCCNC(=N)N)NC(=O)[C@@H](Cc2ccccc2)NC(=O)[C@H](CCCNC(=N)N)NC(=O)[C@H](C)NC1=O [CTX-1268] (Ac-RCAR[dF]R[dW]C-NH2; disulfide 2-8) was 30

Reported MC4R selectivity vs MC3R for C[C@H]1NC(=O)CSC[C@@H](C(N)=O)NC(=O)[C@H](Cc2ccccc2)NC(=O)[C@H](CCCNC(=N)N)NC(=O)[C@@H](Cc2ccccc2)NC(=O)[C@H](Cc2c[nH]cn2)NC1=O [CTX-1656] ({CH2CO}-[dA]H[dF]RFC-NH2; thioether N-6) was 1.64

Reported MC4R selectivity vs MC3R for CC(=O)N[C@@H](CCCNC(=N)N)C(=O)N[C@H]1CSSC[C@@H](C(N)=O)NC(=O)[C@H](Cc2c[nH]c3ccccc23)NC(=O)[C@H](CCCNC(=N)N)NC(=O)[C@@H](Cc2ccccc2)NC(=O)[C@H](CCCNC(=N)N)NC(=O)[C@@H](C)NC1=O [CTX-1211] (Ac-RC[dA]R[dF]RWC-NH2; disulfide 2-8 (inferred)) was 5.49
